Origin of values: patent US20240327406A1

# measured_on: human Kv3.1 channels (hKv3.1) (Homo sapiens, UniProt P48547)
# Sequence (P48547 1-501 limits assumed): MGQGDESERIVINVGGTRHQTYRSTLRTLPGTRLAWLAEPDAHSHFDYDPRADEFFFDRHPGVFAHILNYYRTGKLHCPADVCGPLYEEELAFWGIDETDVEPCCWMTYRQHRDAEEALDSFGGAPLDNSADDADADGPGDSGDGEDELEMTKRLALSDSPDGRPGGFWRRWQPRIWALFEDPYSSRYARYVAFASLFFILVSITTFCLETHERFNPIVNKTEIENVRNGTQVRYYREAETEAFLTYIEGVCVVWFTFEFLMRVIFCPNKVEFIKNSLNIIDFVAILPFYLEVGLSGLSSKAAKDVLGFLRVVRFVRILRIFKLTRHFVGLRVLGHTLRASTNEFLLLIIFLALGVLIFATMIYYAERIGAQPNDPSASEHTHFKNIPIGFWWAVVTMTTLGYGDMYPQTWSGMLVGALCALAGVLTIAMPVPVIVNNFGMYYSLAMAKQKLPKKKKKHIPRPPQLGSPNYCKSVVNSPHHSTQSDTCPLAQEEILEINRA
# assay_remarks: Measurement of Kv3 channel modulation: Kv3.1 assay (IonWorks Quattro whole-cell electrophysiology)
# Type: cell-based
# recorded_conditions: Table 3, Reference Examples and corresponding Examples; rounded to one decimal place; read-out: Kv3.1 pEC50 (converted)
# reported EC50; entries follow

Please review the entries below; each comes with its answer.
Cc1ccc(Oc2ccc(N3C(=O)NCc4cccnc43)cn2)c2c1OCC21CC1 [RE11, reference compound] | 2000 nM
CC1(C)COc2cccc(Oc3ncc(-n4c(=O)[nH]c5cnccc54)cn3)c21 [RE9, reference compound] | > 50100 nM
O=c1[nH]c2cccnc2n1-c1ccc(Oc2cccc(OC(F)(F)F)c2)nc1 [Example 7] | 398 nM

# input for lookup
Exercise: Lookup: EC50 / human Kv3.1 channels (hKv3.1) (Homo sapiens, UniProt P48547) / Cc1ccc(Oc2ccc(-n3c(=O)[nH]c4cccnc43)cn2)c2c1OCC21CC1 [Example 1]
Solution: 200 nM
